Data origin: patent US12162840B2

Test system: cool season plant species
Experiment: B2 Post-emergence efficacy Test 2, cool season plant species
Format: in vivo
Settings: VERPE, 60 g/Ha, 15 days after application, 0=no damage, 100=total kill
Test Readout: Herbicidal activity (0-100 scale) VERPE

>  <Smiles Notation>
Cc1nn(C)c(=O)c(-c2c(F)ccc(Cl)c2CCc2ccccc2C(F)(F)F)c1O

>  <Observed Result>
100

$$$$
>  <Smiles Notation>
Cc1nn(C)c(=O)c(-c2c(F)ccc(Cl)c2CCc2ccc(F)cc2)c1OC(=O)C(C)C

>  <Observed Result>
70

$$$$
>  <Smiles Notation>
Cc1nn(C)c(=O)c(-c2c(F)ccc(Cl)c2CCc2ccc(C#N)cc2)c1O

>  <Observed Result>
90

$$$$
>  <Smiles Notation>
Cc1nn(C)c(=O)c(-c2c(F)ccc(Cl)c2CCc2ccc(F)cc2)c1O

>  <Observed Result>
90

$$$$
>  <Smiles Notation>
Cc1nn(C)c(=O)c(-c2c(F)ccc(Cl)c2CCc2ccc(Cl)cc2)c1OC(=O)C(C)C

>  <Observed Result>
90

$$$$

---

The following compounds are listed with their measured Herbicidal activity, XANST values.
Test system: warm season plant species
Experiment: B2 Post-emergence efficacy Test 2, warm season plant species
Type: in vivo
Conditions: Xanthium strumarium, 250 g/Ha, 15 days after application, 0-100 scale, 0=no damage, 100=total kill

>  <Compound>
Cc1nn(C)c(=O)c(-c2c(F)ccc(Cl)c2CCc2ccc(F)cc2)c1O [Compound 1.048]

>  <Herbicidal activity, XANST>
90

$$$$
>  <Compound>
Cc1nn(C)c(=O)c(-c2c(F)ccc(Cl)c2CCc2ccc(F)cc2)c1OC(=O)C(C)C [Compound 1.125]

>  <Herbicidal activity, XANST>
90

$$$$
>  <Compound>
Cc1nn(C)c(=O)c(-c2c(F)ccc(Cl)c2CCc2ccccc2C(F)(F)F)c1O [Compound 1.066]

>  <Herbicidal activity, XANST>
100

$$$$
>  <Compound>
Cc1nn(C)c(=O)c(-c2c(F)ccc(Cl)c2CCc2ccc(Cl)cc2)c1OC(=O)C(C)C [Compound 1.089]

>  <Herbicidal activity, XANST>
90

$$$$

---

Tested on: warm season plant species
Assay: B2 Post-emergence efficacy Test 2, warm season plant species
Type: in vivo
Details: Sorghum bicolour, 60 g/Ha, 15 days after application, 0-100 scale, 0=no damage, 100=total kill
// values below are reported Herbicidal activity, SORVU

>  <Smiles Notation>
Cc1nn(C)c(=O)c(-c2c(F)ccc(Cl)c2CCc2ccc(F)cc2)c1OC(=O)C(C)C

>  <Target Desc>
warm season plant species

>  <Herbicidal activity, SORVU>
50

$$$$
>  <Smiles Notation>
Cc1nn(C)c(=O)c(-c2c(F)ccc(Cl)c2CCc2ccc(C#N)cc2)c1O

>  <Target Desc>
warm season plant species

>  <Herbicidal activity, SORVU>
70

$$$$
>  <Smiles Notation>
Cc1nn(C)c(=O)c(-c2c(F)ccc(Cl)c2CCc2ccc(F)cc2)c1O

>  <Target Desc>
warm season plant species

>  <Herbicidal activity, SORVU>
70

$$$$
>  <Smiles Notation>
Cc1nn(C)c(=O)c(-c2c(F)ccc(Cl)c2CCc2ccc(Cl)cc2)c1OC(=O)C(C)C

>  <Target Desc>
warm season plant species

>  <Herbicidal activity, SORVU>
70

$$$$
>  <Smiles Notation>
Cc1nn(C)c(=O)c(-c2c(F)ccc(Cl)c2CCc2ccccc2C(F)(F)F)c1O

>  <Target Desc>
warm season plant species

>  <Herbicidal activity, SORVU>
60

$$$$

---

Test system: warm season plant species
Experiment: B2 Post-emergence efficacy Test 2, warm season plant species
Assay type: in vivo
Details: Abutilon theophrasti, 60 g/Ha, 15 days after application, 0-100 scale, 0=no damage, 100=total kill
Test Readout: Herbicidal activity, ABUTH

>  <Molecule>
Cc1nn(C)c(=O)c(-c2c(F)ccc(Cl)c2CCc2ccc(F)cc2)c1OC(=O)C(C)C [Compound 1.125]

>  <Observed Result>
90

$$$$
>  <Molecule>
Cc1nn(C)c(=O)c(-c2c(F)ccc(Cl)c2CCc2ccc(C#N)cc2)c1O [Compound 1.024]

>  <Observed Result>
100

$$$$
>  <Molecule>
Cc1nn(C)c(=O)c(-c2c(F)ccc(Cl)c2CCc2ccccc2C(F)(F)F)c1O [Compound 1.066]

>  <Observed Result>
50

$$$$
>  <Molecule>
Cc1nn(C)c(=O)c(-c2c(F)ccc(Cl)c2CCc2ccc(Cl)cc2)c1OC(=O)C(C)C [Compound 1.089]

>  <Observed Result>
100

$$$$
>  <Molecule>
Cc1nn(C)c(=O)c(-c2c(F)ccc(Cl)c2CCc2ccc(F)cc2)c1O [Compound 1.048]

>  <Observed Result>
90

$$$$

---

Herbicidal activity, ECHCG values by entry
Tested on: warm season plant species
Assay: B2 Post-emergence efficacy Test 2, warm season plant species
Assay type: in vivo
Conditions: Echinochloa crus galli, 125 g/Ha, 15 days after application, 0-100 scale, 0=no damage, 100=total kill
Test Readout: Herbicidal activity, ECHCG

>  <Smiles Notation>
Cc1nn(C)c(=O)c(-c2c(F)ccc(Cl)c2CCc2ccc(Cl)cc2)c1OC(=O)C(C)C

>  <Target Desc>
warm season plant species

>  <Test Readout>
Herbicidal activity, ECHCG

>  <Observed Result>
90

$$$$
>  <Smiles Notation>
Cc1nn(C)c(=O)c(-c2c(F)ccc(Cl)c2CCc2ccc(C#N)cc2)c1O

>  <Target Desc>
warm season plant species

>  <Test Readout>
Herbicidal activity, ECHCG

>  <Observed Result>
90

$$$$
>  <Smiles Notation>
Cc1nn(C)c(=O)c(-c2c(F)ccc(Cl)c2CCc2ccc(F)cc2)c1OC(=O)C(C)C

>  <Target Desc>
warm season plant species

>  <Test Readout>
Herbicidal activity, ECHCG

>  <Observed Result>
80

$$$$
>  <Smiles Notation>
Cc1nn(C)c(=O)c(-c2c(F)ccc(Cl)c2CCc2ccc(F)cc2)c1O

>  <Target Desc>
warm season plant species

>  <Test Readout>
Herbicidal activity, ECHCG

>  <Observed Result>
90

$$$$
>  <Smiles Notation>
Cc1nn(C)c(=O)c(-c2c(F)ccc(Cl)c2CCc2ccccc2C(F)(F)F)c1O

>  <Target Desc>
warm season plant species

>  <Test Readout>
Herbicidal activity, ECHCG

>  <Observed Result>
90

$$$$

---

Parameter Herbicidal activity, GLXMA: see the listing below.
Test system: warm season plant species
Assay: B2 Post-emergence efficacy Test 2, warm season plant species
Type: in vivo
Conditions: Glycine max, 500 g/Ha, 15 days after application, 0-100 scale, 0=no damage, 100=total kill

>  <Molecule>
Cc1nn(C)c(=O)c(-c2c(F)ccc(Cl)c2CCc2ccc(F)cc2)c1OC(=O)C(C)C [Compound 1.125]

>  <Target Desc>
warm season plant species

>  <Herbicidal activity, GLXMA>
90

$$$$
>  <Molecule>
Cc1nn(C)c(=O)c(-c2c(F)ccc(Cl)c2CCc2ccc(C#N)cc2)c1O [Compound 1.024]

>  <Target Desc>
warm season plant species

>  <Herbicidal activity, GLXMA>
100

$$$$
>  <Molecule>
Cc1nn(C)c(=O)c(-c2c(F)ccc(Cl)c2CCc2ccc(F)cc2)c1O [Compound 1.048]

>  <Target Desc>
warm season plant species

>  <Herbicidal activity, GLXMA>
100

$$$$
>  <Molecule>
Cc1nn(C)c(=O)c(-c2c(F)ccc(Cl)c2CCc2ccc(Cl)cc2)c1OC(=O)C(C)C [Compound 1.089]

>  <Target Desc>
warm season plant species

>  <Herbicidal activity, GLXMA>
100

$$$$
>  <Molecule>
Cc1nn(C)c(=O)c(-c2c(F)ccc(Cl)c2CCc2ccccc2C(F)(F)F)c1O [Compound 1.066]

>  <Target Desc>
warm season plant species

>  <Herbicidal activity, GLXMA>
90

$$$$

---

# Lookup of reported Herbicidal activity, ABUTH keyed by entry
System: warm season plant species
Assay: B2 Post-emergence efficacy Test 2, warm season plant species
Format: in vivo
Settings: Abutilon theophrasti, 30 g/Ha, 15 days after application, 0-100 scale, 0=no damage, 100=total kill

>  <Smiles Notation>
Cc1nn(C)c(=O)c(-c2c(F)ccc(Cl)c2CCc2ccc(F)cc2)c1OC(=O)C(C)C

>  <Herbicidal activity, ABUTH>
90

$$$$
>  <Smiles Notation>
Cc1nn(C)c(=O)c(-c2c(F)ccc(Cl)c2CCc2ccc(Cl)cc2)c1OC(=O)C(C)C

>  <Herbicidal activity, ABUTH>
90

$$$$
>  <Smiles Notation>
Cc1nn(C)c(=O)c(-c2c(F)ccc(Cl)c2CCc2ccc(F)cc2)c1O

>  <Herbicidal activity, ABUTH>
80

$$$$
>  <Smiles Notation>
Cc1nn(C)c(=O)c(-c2c(F)ccc(Cl)c2CCc2ccc(C#N)cc2)c1O

>  <Herbicidal activity, ABUTH>
90

$$$$
>  <Smiles Notation>
Cc1nn(C)c(=O)c(-c2c(F)ccc(Cl)c2CCc2ccccc2C(F)(F)F)c1O

>  <Herbicidal activity, ABUTH>
50

$$$$
